# reported GFP signal change (wild-type ribosome); entries follow
experiment: GFP drop in mixed WT/humanized-ribosome E. coli culture – GFP/RFP fluorescence, OD600, single point, bacterial rRNA inhibitor project, primary screen (AID 720706); settings: E. coli WT GFP vs humanized-ribosome RFP mutants, 24 h; active compounds read low, DMSO median 0, no signal -100
In all, about 350,000 compounds went through this assay and about 5,500 (1.6%) were called active. What follows is part of a selection rich in actives, with near analogues and random picks from the rest.

[
  {
    "molecule": "C[C@H]1CN([C@@H](C)CO)C(=O)Cc2cc(NC(=O)C3CC3)ccc2O[C@H]1CN(C)S(=O)(=O)c1ccc(Cl)cc1",
    "units of measure": "%",
    "GFP signal change (wild-type ribosome)": -2.58
  },
  {
    "molecule": "Cc1ccc(S(=O)(=O)NC(C)C(=O)NCc2ccc(Cl)cc2)cc1 (centres undefined)",
    "units of measure": "%",
    "GFP signal change (wild-type ribosome)": -22.7
  },
  {
    "molecule": "O=C(COc1ccc(Cl)cc1)NC(=S)Nc1ccccc1N1CCOCC1",
    "units of measure": "%",
    "GFP signal change (wild-type ribosome)": -9.68
  },
  {
    "molecule": "O=C1CN(S(=O)(=O)Cc2ccccc2)C[C@@H]2[C@@H](c3ccc(C#Cc4cccc(F)c4)cc3)[C@@H](CO)N12",
    "units of measure": "%",
    "GFP signal change (wild-type ribosome)": -6.58
  },
  {
    "molecule": "CC(C)CNS(=O)(=O)c1ccc(CCC(=O)NCc2ccc(Cl)cc2)cc1",
    "units of measure": "%",
    "GFP signal change (wild-type ribosome)": 10.8
  },
  {
    "molecule": "CNC[C@@H]1Oc2ccc(NC(C)=O)cc2CC(=O)N(C)C[C@@H]1C",
    "units of measure": "%",
    "GFP signal change (wild-type ribosome)": -0.631
  },
  {
    "molecule": "Cc1cc(C)cc(OCC(=O)Nc2ccc(N3CCOCC3)cc2N2CCOCC2)c1",
    "units of measure": "%",
    "GFP signal change (wild-type ribosome)": -2.33
  },
  {
    "molecule": "C[C@@H]1CCCCO[C@@H](CN(C)S(=O)(=O)c2cccs2)[C@H](C)CN([C@H](C)CO)C(=O)c2cc(NC(=O)CCCN(C)C)ccc2O1",
    "units of measure": "%",
    "GFP signal change (wild-type ribosome)": 0.863
  },
  {
    "molecule": "Cc1cccc(OCC(=O)NC(=S)Nc2ccccc2N2CCOCC2)c1",
    "units of measure": "%",
    "GFP signal change (wild-type ribosome)": -22.8
  }
]
